Below: a set of entries, each annotated with reported melting point.

Solved entries (count: 3):
COMPOUND | EXPERIMENTAL_READOUT | RESULT_VALUE
COc1ccccc1C1SCC(=O)Nc2ccc(N(C)C)cc21 (stereo not shown) | melting point | 233 to 236 °C
O=C1CSC(c2ccccc2)c2cnccc2N1 (stereo not shown) | melting point | 138 to 143 °C
CN(C)c1ccc2c(c1)C(c1ccccc1Cl)SCC(=O)N2 (stereo not shown) | melting point | 178 to 181 °C

Any idea what melting point was measured for CC(C)c1cccc(C2SCC(=O)Nc3ccc(Cl)cc32)c1 (stereo not shown) ?
218 to 220 °C

Next entry: COc1ccccc1C1SCC(=O)Nc2ccccc21 (stereo not shown)
216 to 218 °C

Next entry: O=C1CSC(c2ccc(F)cc2)c2ccccc2N1 (stereo not shown)
251 to 254 °C

Next entry: O=C1CSC(c2ccccn2)c2cc(Cl)ccc2N1 (stereo not shown)
215 to 217 °C

Next entry: O=C1CSC(c2ccc([N+](=O)[O-])cc2)c2cc(Cl)ccc2N1 (stereo not shown)
289 to 291 °C

Next entry: O=C1CSC(c2ccncc2Cl)c2cc(Cl)ccc2N1 (stereo not shown)
226 to 229 °C

Next entry: O=C1CSC(c2ccncc2)c2cc(Cl)ccc2N1 (stereo not shown)
224 to 226 °C

* * *

METHOD: Blood-brain barrier permeation assay (PAMPA), porcine brain lipid
Format: in vitro ADME
MEASUREMENT_CONDITIONS: porcine brain lipid, pH 7.4, 4 h, rt, Pe ≥ 4 indicates passive BBB crossing, read-out: Pe, in vitro permeability (PAMPA-BBB)
EXPERIMENTAL_READOUT: Papp at 4 h, 100 µM

MOLECULE | RESULT_VALUE
CN(C)c1ccc2c(c1)C(c1ccccc1Cl)SCC(=O)N2 (stereo not drawn) | < 4 ×10⁻⁶ cm/s
O=C1CSC(c2ccc([N+](=O)[O-])cc2)c2cc(Cl)ccc2N1 (stereo not drawn) | < 4 ×10⁻⁶ cm/s

Any idea what Papp at 4 h, 100 µM was measured for O=C1CSC(c2ccc(F)cc2)c2ccccc2N1 (stereo not drawn) ?
< 4 ×10⁻⁶ cm/s
